From: PubChem BioAssay AID2060333

Tested on: 845751-090-R-J2-PDC tumor spheroid viability;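 further: spheroids exposed to compounds for 7 days before readout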
Assay: Anticancer human tumor 845751-090-R-J2-PDC patient-derived head and neck squamous carcinoma cell line growth inhibition [IpAb]
Details: second compound 0.316 µM; first compound 3.16 µM; hits give low values; spheroids with HUVEC and MSC
Dear colleague, classification is by viability, T/C, with ranges listed here: lower bin (below 20%), middle bin (20% to below 60%), upper bin (60% or more)

CC1(C)CCC(CN2CCN(c3ccc(C(=O)NS(=O)(=O)c4ccc(NCC5CCOCC5)c([N+](=O)[O-])c4)c(Oc4cnc5[nH]ccc5c4)c3)CC2)=C(c2ccc(Cl)cc2)C1 + CC(C)NCC(C(=O)N1CCN(c2ncnc3c2C(C)CC3O)CC1)c1ccc(Cl)cc1; middle bin
Cc1nc(NC(=O)N2CCCC2C(N)=O)sc1-c1ccnc(C(C)(C)C(F)(F)F)c1 (centres undefined) + CC(C)NCC(C(=O)N1CCN(c2ncnc3c2C(C)CC3O)CC1)c1ccc(Cl)cc1; lower bin
C=CCn1c(=O)c2cnc(Nc3ccc(N4CCN(C)CC4)cc3)nc2n1-c1cccc(C(C)(C)O)n1 + CC(C)NCC(C(=O)N1CCN(c2ncnc3c2C(C)CC3O)CC1)c1ccc(Cl)cc1; middle bin
CC1(C)CCC(CN2CCN(c3ccc(C(=O)NS(=O)(=O)c4ccc(NCC5CCOCC5)c([N+](=O)[O-])c4)c(Oc4cnc5[nH]ccc5c4)c3)CC2)=C(c2ccc(Cl)cc2)C1 + CCN1CCN(Cc2ccc(Nc3ncc(F)c(-c4cc(F)c5nc(C)n(C(C)C)c5c4)n3)nc2)CC1; upper bin
Cc1nc(NC(=O)N2CCCC2C(N)=O)sc1-c1ccnc(C(C)(C)C(F)(F)F)c1 (centres undefined) + CCN1CCN(Cc2ccc(Nc3ncc(F)c(-c4cc(F)c5nc(C)n(C(C)C)c5c4)n3)nc2)CC1; lower bin

Q) Form field 'band' for Cn1nccc1Nc1nccc(-c2ccn(C(CO)c3ccc(Cl)c(F)c3)c(=O)c2)n1 (centres undefined) + CCN1CCN(Cc2ccc(Nc3ncc(F)c(-c4cc(F)c5nc(C)n(C(C)C)c5c4)n3)nc2)CC1
A) upper bin

Q) Now the same for C=CC(=O)N1CCN(c2nc(=O)n(-c3c(C)ccnc3C(C)C)c3nc(-c4c(O)cccc4F)c(F)cc23)C(C)C1 (centres undefined) + CCN1CCN(Cc2ccc(Nc3ncc(F)c(-c4cc(F)c5nc(C)n(C(C)C)c5c4)n3)nc2)CC1
A) middle bin

Q) Now the same for Cn1nccc1Nc1nccc(-c2ccn(C(CO)c3ccc(Cl)c(F)c3)c(=O)c2)n1 (centres undefined) + CC(C)NCC(C(=O)N1CCN(c2ncnc3c2C(C)CC3O)CC1)c1ccc(Cl)cc1
A) lower bin
